experimental.target: Sut1 (UniProt P53032)
Sequence: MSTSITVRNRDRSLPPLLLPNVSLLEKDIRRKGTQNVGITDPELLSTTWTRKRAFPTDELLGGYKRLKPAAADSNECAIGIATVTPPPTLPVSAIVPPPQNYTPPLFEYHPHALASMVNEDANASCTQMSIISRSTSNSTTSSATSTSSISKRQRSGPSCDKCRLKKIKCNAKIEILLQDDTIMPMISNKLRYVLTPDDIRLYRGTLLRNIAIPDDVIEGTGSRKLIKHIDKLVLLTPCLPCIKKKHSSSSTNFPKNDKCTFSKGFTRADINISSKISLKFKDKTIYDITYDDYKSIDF
assay.comment: PBM E-score (8-mer binding enrichment) (E-score (-0.5 to 0.5)); higher = stronger / more preferred TF binding
test.parameters: protein concentration: 200 nM; construct: GST-full length
In all, about 33,000 sequences were measured (“E-score (-0.5 to 0.5)”: median about -0.017, highest 2% from about 0.3 on). This is one part of a sample in which the highest values are shown more often than they occur.
So basically: PBM E-score at -0.04 or higher? That is t. Lower than -0.04? That is f.

Use these answered entries as a reference point.
CGCCGAAA ... t
AATCGGCG ... f
CGAGTAGA ... t
CGGAGAGA ... t
AGCCTAGA ... f

Lookup: Determine whether this sequence has PBM E-score no lower than -0.04: GACCCGGA
Found: t

Lookup: Determine whether this sequence has PBM E-score no lower than -0.04: CCTCGGAC
Found: t

Lookup: Determine whether this sequence has PBM E-score no lower than -0.04: GGAGTAAC
Found: t

Lookup: Determine whether this sequence has PBM E-score no lower than -0.04: CCGAAAAA
Found: t

Lookup: Determine whether this sequence has PBM E-score no lower than -0.04: ACAGTGTC
Found: f

Lookup: Determine whether this sequence has PBM E-score no lower than -0.04: CTTTTGTA
Found: t

Lookup: Determine whether this sequence has PBM E-score no lower than -0.04: GGAGTATA
Found: t

Lookup: Determine whether this sequence has PBM E-score no lower than -0.04: GGAGTAAA
Found: t

Lookup: Determine whether this sequence has PBM E-score no lower than -0.04: TCCCCGAA
Found: t

Lookup: Determine whether this sequence has PBM E-score no lower than -0.04: ACTAGGCC
Found: f

Lookup: Determine whether this sequence has PBM E-score no lower than -0.04: CGGAGAGC
Found: t

Lookup: Determine whether this sequence has PBM E-score no lower than -0.04: GCCCAAAA
Found: f
